B1: library; numbered along this chain (parent)
chain: MAAAGGARLLRAASAVLGGPAGRWLHHAGSRAGSSGLLRNRGPGGSAEASRSLSVSARARSSSEDKITVHFINRDGETLTTKGKVGDSLLDVVVENNLDIDGFGACEGTLACSTCHLIFEDHIYEKLDAITDEENDMLDLAYGLTDRSRLGCQICLTKSMDNMTVRVPETVADARQSIDVGKTS

# Variants of: B1
# assay name: scaled log2 fold change in cell abundance, elesclomol vs control (0 = silent mean, 1 = nonsense mean) (scaled log2 ratio); higher = higher viability under elesclomol (loss of FDX1 cuproptosis function);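 also: variant abundance is its share of total variant reads in each endpoint sample, from next-generation sequencing of the integrated ORF PCR-amplified out of genomic DNA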
# experimental context: with HEK293T FDX1 KO; elesclomol 40 nM; glucose 10 mM; 11 days
observable: scaled log2 fold change
Could you respond with only the numeric value?

Example cases with answers are listed next.
{"variant annotation": "L90W", "scaled log2 fold change": 0.134}
{"variant annotation": "S113E", "scaled log2 fold change": -0.214}
{"variant annotation": "A32G", "scaled log2 fold change": -0.0456}

What scaled log2 fold change value was documented for this variant, `R60F` ? -0.201

Same lookup for `R166W` , please. 0.748

`H70L` ? -0.612

Also, `G45V` please. -0.648
